# assayTarget: IRAK4 (Homo sapiens, UniProt Q9NWZ3)
# Construct: endogenous in cells; host or cells: THP-1 cells
# Sequence (Q9NWZ3 whole entry): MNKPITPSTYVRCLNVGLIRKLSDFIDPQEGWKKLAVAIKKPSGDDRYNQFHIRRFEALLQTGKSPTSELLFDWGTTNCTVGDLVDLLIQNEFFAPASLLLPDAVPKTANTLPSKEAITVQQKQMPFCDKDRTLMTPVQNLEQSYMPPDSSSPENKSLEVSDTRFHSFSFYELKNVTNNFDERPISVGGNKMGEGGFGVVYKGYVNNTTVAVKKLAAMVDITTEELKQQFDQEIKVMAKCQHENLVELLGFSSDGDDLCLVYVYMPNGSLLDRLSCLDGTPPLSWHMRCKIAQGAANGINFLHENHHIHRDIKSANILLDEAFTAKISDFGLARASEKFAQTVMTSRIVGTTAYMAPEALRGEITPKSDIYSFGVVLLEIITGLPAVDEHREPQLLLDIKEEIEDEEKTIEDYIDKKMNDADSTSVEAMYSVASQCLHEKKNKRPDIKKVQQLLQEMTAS
# assayInfo: LVL THP1 HTRF (THP1 Homogeneous Time Resolved Fluorescence)
# Assay type: cell-based
# measurementSetup: THP1 cells, 18 h incubation with compound, read-out: LVL THP1 HTRF EC50
endpoint: DC50 (nM)

Worked cases, answers included:
- compound: "C[C@H](C#N)Nc1cc(-n2ncc3cc(C#N)cnc32)ncc1-n1cc([C@H]2CC[C@H](CCN3CC[C@H](Oc4ccc(N5CCC(=O)NC5=O)cc4)C3)CC2)nn1"
  DC50 (nM): 293
- compound: "O=C1CCC(N2C(=O)c3ccc(NCCCNC(=O)C4CCC(NC(=O)c5cnc(Nc6ccc7ncsc7c6)cc5NC5CCCC5)CC4)cc3C2=O)C(=O)N1 (stereo not drawn)"
  DC50 (nM): 148
- compound: "CC[C@@H]1CN(CC[C@H]2CC[C@H](c3cn(-c4cnc(-n5ncc6cc(C#N)c(N)nc65)cc4N[C@H](C)C#N)nn3)CC2)CCN1c1ccc(N2CCC(=O)NC2=O)cc1"
  DC50 (nM): 0.6
- compound: "C[C@H](C#N)Nc1cc(-n2ncc3cnc(N)nc32)ncc1C(=O)N[C@H]1CC[C@H](CCN2CCN(c3ccc(C4CCC(=O)NC4=O)cc3)CC2)CC1 (stereo partly drawn)"
  DC50 (nM): 18

[a] C[C@H](C#N)Nc1nc(-n2ncc3cc(C#N)cnc32)ncc1-n1cc([C@H]2CC[C@H](CCN3CCN(c4ccc(C5CCC(=O)NC5=O)cc4)CC3)CC2)nn1 (stereo partly drawn)
[b] C[C@H](C#N)Nc1cc(Nc2ncc(C#N)cc2F)ncc1-n1cc([C@H]2CC[C@H](CCN3CCN(c4ccc([C@@]5(C)CCC(=O)NC5=O)cc4)CC3)CC2)nn1
Param metric = DC50; output whichever of a , b has the minimum value. Lab log: write the label of the selected item as the result.
a
(a: 8.3 nM, b: 36.4 nM)
